# test-target: 5-hydroxytryptamine receptor 2C (Homo sapiens, UniProt P28335)
# Sequence (P28335 whole entry, canonical isoform): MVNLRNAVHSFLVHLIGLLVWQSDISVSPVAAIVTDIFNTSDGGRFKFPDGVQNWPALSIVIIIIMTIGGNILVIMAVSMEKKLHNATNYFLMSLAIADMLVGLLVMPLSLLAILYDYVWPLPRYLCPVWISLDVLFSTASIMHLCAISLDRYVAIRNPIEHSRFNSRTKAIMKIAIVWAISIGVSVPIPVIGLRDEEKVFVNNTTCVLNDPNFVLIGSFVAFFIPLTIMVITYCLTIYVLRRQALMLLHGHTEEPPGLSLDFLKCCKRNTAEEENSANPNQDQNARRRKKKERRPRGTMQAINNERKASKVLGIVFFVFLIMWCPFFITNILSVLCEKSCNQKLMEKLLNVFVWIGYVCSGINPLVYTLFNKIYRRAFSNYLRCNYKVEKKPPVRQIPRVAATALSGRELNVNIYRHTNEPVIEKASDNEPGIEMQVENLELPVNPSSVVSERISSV
# experiment-summary: Agonist activity at recombinant human unedited 5HT2C receptor isoform INI expressed in Flp-In-293 cells assessed as increase in calcium influx measured for 300 secs by Fluo-4 dye based FLIPR assay
measurement-label: EC50 (nM)

compound_structure=COc1ccccc1CNC[C@H]1C[C@]1(F)c1ccccc1 measurement_label=EC50 test_value=789
compound_structure=NC[C@H]1C[C@]1(F)c1cccc(F)c1 measurement_label=EC50 test_value=3
compound_structure=NC[C@@H]1C[C@@]1(F)c1ccccc1 measurement_label=EC50 test_value=4110

###

# test-target: UniProt P28223
# experiment-summary: Agonist activity at recombinant human 5HT2A receptor expressed in Flp-In-293 cells assessed as increase in calcium influx measured for 300 secs by Fluo-4 dye based FLIPR assay relative to control
# Assay type: cell-based
# particulars: Flp-In-293 cells expressing recombinant human 5HT2A receptor
measurement-label: Emax at 5 min

compound="COc1ccccc1CNCC1CC1(F)c1cc(F)ccc1OC (racemic)" measurement_label="Emax at 5 min" test_value=92%
compound=NC[C@H]1C[C@]1(F)c1cccc(Cl)c1 measurement_label="Emax at 5 min" test_value=102%
compound=NC[C@H]1C[C@]1(F)c1cccc(F)c1 measurement_label="Emax at 5 min" test_value=83%
compound=Cc1cccc([C@@]2(F)C[C@@H]2CN)c1.Cl measurement_label="Emax at 5 min" test_value=71%
compound=NC[C@H]1C[C@]1(F)c1ccccc1 measurement_label="Emax at 5 min" test_value=106%
compound=COc1ccccc1CNC[C@H]1C[C@]1(F)c1ccccc1 measurement_label="Emax at 5 min" test_value=83%
compound=NC[C@@H]1C[C@@]1(F)c1ccccc1 measurement_label="Emax at 5 min" test_value=47%
compound="COc1ccc(F)cc1C1(F)CC1CN (racemic)" measurement_label="Emax at 5 min" test_value=86%
compound=Cl.NC[C@H]1C[C@]1(F)c1ccccc1Br measurement_label="Emax at 5 min" test_value=38%
compound=CNC[C@H]1C[C@]1(F)c1ccccc1 measurement_label="Emax at 5 min" test_value=40%

###

Measured pEC50 accompanies every entry in the list below.
# test-target: 5-hydroxytryptamine receptor 2A (Homo sapiens, UniProt P28223)
# Sequence (P28223 whole entry): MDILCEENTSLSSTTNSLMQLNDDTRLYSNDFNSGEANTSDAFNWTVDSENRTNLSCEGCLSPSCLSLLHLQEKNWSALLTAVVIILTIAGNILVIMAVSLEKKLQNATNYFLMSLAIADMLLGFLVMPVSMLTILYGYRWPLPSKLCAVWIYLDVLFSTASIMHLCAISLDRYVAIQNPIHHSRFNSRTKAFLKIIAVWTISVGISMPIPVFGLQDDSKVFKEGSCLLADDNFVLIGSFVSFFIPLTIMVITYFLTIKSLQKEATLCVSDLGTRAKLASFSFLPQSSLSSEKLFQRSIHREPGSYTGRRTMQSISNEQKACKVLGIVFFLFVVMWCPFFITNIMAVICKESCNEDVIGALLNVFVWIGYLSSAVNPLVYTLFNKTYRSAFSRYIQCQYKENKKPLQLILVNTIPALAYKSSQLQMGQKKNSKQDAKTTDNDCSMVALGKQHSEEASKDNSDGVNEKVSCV
# experiment-summary: Agonist activity at recombinant human 5HT2A receptor expressed in Flp-In-293 cells assessed as increase in calcium influx measured for 300 secs by Fluo-4 dye based FLIPR assay
pEC50: −log10 of the molar value.
measurement-label: pEC50

compound_structure=Cl.NC[C@H]1C[C@]1(F)c1ccccc1Br test_value=6.91
compound_structure=NC[C@@H]1C[C@@]1(F)c1ccccc1 test_value=5.74
compound_structure=NC[C@H]1C[C@]1(F)c1cccc(F)c1 test_value=8.52
compound_structure=NC[C@H]1C[C@]1(F)c1ccccc1 test_value=8.00
